# growth listing for each entry below
# Tested on: CCRF-CEM leukemia
# assay notes: NCI-60 one-dose screen, 48 h (100 = growth as untreated, 0 = no growth, -100 = all killed)
# particulars: 10 µM
This is part of a sample that, as a whole, favours compounds with a hit. Of some 83,000 tested, about 20% had one in any assay. Activity calls are given as the source filed them. How the source made its calls: active means growth percent below 10; inactive means the rest.

compound	target	growth
CC(=O)OC1Oc2ccccc2-c2oc(=O)c(-c3ccc(F)cc3)cc21 (stereo not given)	CCRF-CEM leukemia	91.5% (inactive)
O=C(Cn1ccc(=O)[nH]c1=O)c1ccc([N+](=O)[O-])o1	CCRF-CEM leukemia	83% (inactive)
O=C1/C(=C/c2ccc(O)cc2)CSc2ccc(Cl)cc21	CCRF-CEM leukemia	12.4% (inactive)
Cc1nc(Nc2nc3ccccc3o2)nc(-c2cccc([N+](=O)[O-])c2)c1C(=O)Nc1ccc(F)c(Cl)c1	CCRF-CEM leukemia	22.8% (inactive)
CC(C)c1[nH]nc2c(NCc3ccc(-c4ccccn4)cc3)nc(SCCN)nc12	CCRF-CEM leukemia	-0.568% (active)
C=CCn1c(C)nc2cc(Nc3nc(Nc4ccc5nc(C)n(CC=C)c5c4)c4ccccc4n3)ccc21	CCRF-CEM leukemia	-11.3% (active)
CCOC(=O)c1c(C(F)(F)F)n([O-])c2ccc(OC)cc2[n+]1=O	CCRF-CEM leukemia	5.58% (active)
CC(=O)/C(=C\c1ccc(Cl)cc1)c1ccccc1	CCRF-CEM leukemia	11.1% (inactive)
COc1ccc(CCc2nc3cc(-c4c(C)noc4C)ccc3n2CCN2CCOCC2)cc1	CCRF-CEM leukemia	42.7% (inactive)
CS(=O)(=O)Nc1ccc([N+](=O)[O-])cc1Oc1ccccc1	CCRF-CEM leukemia	85.5% (inactive)
COC(=O)c1ccc(Cn2ccc(=O)[nH]c2=O)cc1	CCRF-CEM leukemia	92% (inactive)
COc1ccc(-c2nc(-c3nc4ccc(C)cc4[nH]3)c3ccccn23)cc1	CCRF-CEM leukemia	18.7% (inactive)
Cc1ccc(C)c2c1sc1nc3n[nH]c(N)c3c(=N)n12	CCRF-CEM leukemia	97.3% (inactive)
N#CCC1CCCC1	CCRF-CEM leukemia	92% (inactive)
CC(C)(C)CC(C)(C)c1ccc(O)c(Cc2ccc(Cl)cc2Cl)c1	CCRF-CEM leukemia	-37.4% (active)

====

# System: RXF 393 renal
# assay notes: NCI-60 one-dose screen, 48 h (100 = growth as untreated, 0 = no growth, -100 = all killed)
# particulars: 10 µM
This is part of a sample that, as a whole, favours compounds with a hit. Of some 83,000 tested, about 20% had one in any assay.
Lab note: anything with growth below 70% is marked MET; values at 70% or higher are marked NOT MET.

substance smiles	target	category label
C=CCn1c(C)nc2cc(Nc3nc(Nc4ccc5nc(C)n(CC=C)c5c4)c4ccccc4n3)ccc21	RXF 393 renal	MET
O=[N+]([O-])c1ccc(Br)o1	RXF 393 renal	NOT MET
N#C/C(=C/c1cc([N+](=O)[O-])ccc1Cl)C(N)=O	RXF 393 renal	NOT MET
COc1ccc(S(=O)(=O)Nc2cc(/C=C\c3cc(OC)c(OC)c(OC)c3)ccc2OC)cc1	RXF 393 renal	MET

====

This listing pairs compounds with measured growth.
# Tested on: CAKI-1 renal
# assay notes: NCI-60 one-dose screen, 48 h (100 = growth as untreated, 0 = no growth, -100 = all killed)
# particulars: 10 µM
About 83,000 compounds went through this panel and 20% of them were active in at least one assay; those are over-represented in the sample as a whole.
readout label: growth (%)

compound	readout label	units	test value
O=c1ccc2nc(-c3ccccc3)nn(-c3ccccc3)c-2c1	growth	%	-90.9
N#C/C(=C/c1cc([N+](=O)[O-])ccc1Cl)C(N)=O	growth	%	86.9
CCC(OC(=O)CC(C)C)c1ccccc1 (stereo not given)	growth	%	97.9
COc1ccc(-c2nnc(SC/C(=N\O)c3ccccc3)o2)cc1	growth	%	95.1
CNC(=S)Sc1ccc([N+](=O)[O-])cc1[N+](=O)[O-]	growth	%	27
CCCCCCCC/C=C/CCCCCCCCC1=NCCN1CCO	growth	%	80.5
COc1cc(-c2nc3ccccc3[nH]2)ccc1OCc1nnc(-c2ccc(Br)cc2)o1	growth	%	95.5
Cc1ccc(S(=O)(=O)N2CCc3ccccc3CC2)cc1	growth	%	78.7
CCN1CCN(c2ccc(Nc3ncnc4c3nnn4CCc3cc(OC)cc(OC)c3)cc2)CC1	growth	%	102
COc1cc(/C=C2\C(=O)Nc3cc(C)c(O)cc32)cc(OC)c1OC	growth	%	15.7

====

# System: SR leukemia
# assay notes: NCI-60 one-dose screen, 48 h
# particulars: 10 µM
The panel holds about 83,000 compounds, 20% with a hit somewhere; the sample as a whole holds those more often. Active and inactive are the calls of the source. Rule for the calls: active = growth percent below 10; inactive = the rest.
Outcome codes: active, inactive

compound	target	category label
S=C(Cc1ccc(-c2ccccc2)cc1)N1CCOCC1	SR leukemia	inactive
CCOC(=O)c1ccc(NC(=O)Nc2nncs2)cc1	SR leukemia	active
CCCCCCCCCCCC(c1ccccc1)N(C)C (stereo not drawn)	SR leukemia	inactive

====

# Tested on: UACC-62 melanoma
# assay notes: NCI-60 one-dose screen, 48 h (100 = growth as untreated, 0 = no growth, -100 = all killed)
# particulars: 10 µM
About 83,000 compounds went through this panel and 20% of them were active in at least one assay; those are over-represented in the sample as a whole.
Each entry below carries its recorded growth.

compound	target	growth (%)
CC[C@@]1(C(N)=O)CC2C=CC1C2 (some centres undefined)	UACC-62 melanoma	107
CCCCCN(CCCCC)C(C)C(O)c1ccc2cc(Cl)c3ccccc3c2c1 (centres undefined)	UACC-62 melanoma	88.2
CCOC(=S)Sc1ccc([N+](=O)[O-])cc1[N+](=O)[O-]	UACC-62 melanoma	99
Fc1cc(-c2ncc(-c3cc(F)c(F)c(F)c3)c(NC3CCCCCC3)n2)cc(F)c1F	UACC-62 melanoma	89.4

====

# Test system: SF-268 CNS
# assay notes: NCI-60 one-dose screen, 48 h (100 = growth as untreated, 0 = no growth, -100 = all killed)
# particulars: 10 µM
About 83,000 compounds went through this panel and 20% of them were active in at least one assay; those are over-represented in the sample as a whole.
Quick rule: growth of at least 20% means Yes, below that means No.

molecule	target	category label
O=C(c1ccccc1)C(Nc1ccccc1)c1ccccc1 (stereo not drawn)	SF-268 CNS	Yes
CS(=O)(=O)Nc1ccc(Nc2c3ccccc3nc3cc(Cl)ccc23)cc1	SF-268 CNS	Yes
O=C(O)CNS(=O)(=O)c1ccc(OCCOc2ccc(S(=O)(=O)NCC(=O)O)cc2)cc1	SF-268 CNS	Yes
CN(C)CCCN1c2ccccc2Sc2ccc(C(F)(F)F)cc21	SF-268 CNS	No
COc1ccccc1CNCCCN1C(=O)c2ccc3c4c(ccc(c24)C1=O)C(=O)N(CCCNCCNCCCN)C3=O	SF-268 CNS	No
O=C(CCc1ccccc1)N1CCN(C(=O)CCc2ccccc2)CC1	SF-268 CNS	Yes
C/C(=N\NC(=S)N1CCCC1)c1ccccn1	SF-268 CNS	No
COc1cc(-c2cc(-c3ccc(C)cc3)nc3nc(N)[nH]c(=O)c23)ccc1Oc1ccnc2cc(Cl)ccc12	SF-268 CNS	Yes
COc1ccc(Cn2cc3c(c2-c2cc(OC)c(OC)c(OC)c2)CCc2cnoc2-3)cc1N	SF-268 CNS	No
O=C1/C(=C/c2ccc(O)cc2O)N=C2SCCCN12	SF-268 CNS	Yes
CCOC(=O)c1c(Cl)c2c(n1Cc1cccc(OC)c1)-c1oncc1CC2	SF-268 CNS	Yes
COc1cc(-c2nc3ccc(C)cc3[nH]2)ccc1OCC(=O)N=Nc1c(O)[nH]c2ccccc12	SF-268 CNS	No
CCCCCCCCCCCCCC[n+]1ccc(C)cc1	SF-268 CNS	No
CCOC(=O)[C@@H]1[C@H](c2ccccc2)[C@H]([N+](=O)[O-])[C@H](c2cn(-c3ccccc3)nc2C)N1Cc1ccccc1	SF-268 CNS	Yes
COc1cc(C2C=C(c3ccc(Cl)cc3)N=C3SC(C)=CN32)cc(OC)c1OC (stereo not drawn)	SF-268 CNS	Yes
Cn1c([N+](=O)[O-])cnc1/C=C1\Oc2ccc(Br)cc2C1=O	SF-268 CNS	No
COc1ccc(OC)c([N+](=O)[O-])c1C=O	SF-268 CNS	Yes
O=C1CC[C@@H](C(=O)N[C@H]2CSSC[C@@H](C(=O)N/C=C/c3ccc(O)cc3)NC(=O)[C@H](Cc3ccccc3)NC(=O)[C@@H]3CCCN3C(=O)[C@@H]3CCCN3C2=O)N1	SF-268 CNS	Yes

====

# Tested on: HCT-116 colon
# assay notes: NCI-60 one-dose screen, 48 h (100 = growth as untreated, 0 = no growth, -100 = all killed)
# particulars: 10 µM
The panel holds about 83,000 compounds, 20% with a hit somewhere; the sample as a whole holds those more often.
The entries below come with measured growth values attached.
readout label: growth (%)

compound	readout label	test value
NC1CCC(Nc2nc(NCc3ccc(-c4ccccc4O)nc3)c3ncn(C4CCCC4)c3n2)CC1 (centres undefined)	growth	-55.8
CCc1nn2c(-c3ccccc3)c(-c3cc(OC)c(OC)c(OC)c3)nc2s1	growth	80.8
Cc1cc(C)c(C(=O)OC(C)CNC2CCCCC2)c(C)c1 (centres undefined)	growth	86.3
COc1cc(C)c2sc3ccccc3c(=O)c2c1NCCN(C)C	growth	43
CC(CNC(Cc1ccccc1)c1ccccc1)NC(Cc1ccccc1)c1ccccc1 (centres undefined)	growth	13.2
CCCCn1c(=O)[nH]c2c(c1=O)C(c1ccc(Cl)cc1)c1c([nH]c(=O)n(CCCC)c1=O)N2	growth	96.6
O=C(Nc1ccc(OCc2nnc(-c3ccccc3)o2)c(F)c1)Nc1ccc(Cl)c(Cl)c1	growth	49.2
Cc1[nH]nc2c(=S)[nH]c(=O)[nH]c12	growth	105
Cn1c(=O)c2[nH]c(C(O)c3ccc(Cl)cc3)nc2n(C)c1=O (centres undefined)	growth	95
COc1nc2c(c(=O)[nH]1)C(c1ccc(Oc3ccnc4cc(Cl)ccc34)c(OC)c1)C=C(c1cc(OC)c(OC)c(OC)c1)N2 (centres undefined)	growth	94
Cc1ccc(NS(=O)(=O)c2ccccc2)c(NS(=O)(=O)c2ccccc2)c1	growth	93.7
COc1cc(-c2cc(/C=C/C(C)=O)[nH]n2)cc(OC)c1OC	growth	39
CC(=O)c1c(O)cc2c3c1OC(C)(C)C1CCC(C)(CC31)O2 (centres undefined)	growth	86.8
COc1cc(/C=C/C(=O)c2cc(-c3ccc(F)cc3)ccc2O)cc(OC)c1OC	growth	60
COc1ccc(C(=O)n2nc(CC(=O)NCc3ccccc3)nc2N)cc1	growth	99.5
S=C(Cc1ccc(-c2ccccc2)cc1)N1CCOCC1	growth	98.6
Clc1cc(Cl)c(Cl)c(-c2nc(-c3cccnc3)cs2)c1	growth	40.2
CCOC(=O)c1c(O)c2cc(-c3ccccc3)nc(OCC)c2c(=O)n1C	growth	87.7
Cc1cc(C(C)(C)CC(C)(C)C)ccc1OCCOCC[N+](C)(C)Cc1ccccc1	growth	-97.4
Cc1cc(O)c(C2=NN(c3ccc(S(N)(=O)=O)cc3)C(c3ccc(N(C)C)cc3)C2)c(C)c1Cl (centres undefined)	growth	41.1
CCOc1nc(-c2ccccc2)cc2c(O)c(C(=O)NC(C)C)[nH]c(=O)c12	growth	101
Cc1cccc2c(Nc3ccc(NS(C)(=O)=O)cc3)c3ccc([N+](=O)[O-])cc3nc12	growth	5.63
O=NN(CCCl)C(=O)Nc1ccc(NC(=O)N(CCCl)N=O)cc1	growth	100
CCN(CC)CCOC(=O)c1ccc(NC(=O)Nc2cccc(Cl)c2)cc1	growth	95
CCCCc1ccc(NC(=O)N(CCCl)N=O)cc1	growth	97.1
Cc1cc(C)c2c(Nc3ncnc4c3sc3nc(C)cc(C)c34)n[nH]c2n1	growth	103
COc1cc(C2C=C(c3ccc(Cl)c(Cl)c3)N=C3SC(C)=CN32)cc(OC)c1OC (centres undefined)	growth	-25.8
COc1ccc(CSc2nc3cc(OC)c(OC)cc3c(=O)n2-c2ccc(OC)cc2OC)cc1	growth	62.9
Cc1ncc([N+](=O)[O-])n1CCOc1ccc(C(=O)/C=C/c2ccc(C(F)(F)F)cc2)cc1	growth	-59
CCOC(=O)[C@@H](Cc1ccccc1)NC(=O)c1[nH]c2ccc(Cl)cc2c(=O)c1C	growth	65.2
O=C(c1ccccc1)C(Nc1ccccc1)c1ccccc1 (centres undefined)	growth	87.1
CCc1nn2c(-c3cc(OC)c(OC)c(OC)c3)c(-c3cc(OC)c(OC)c(OC)c3)nc2s1	growth	71.8
Fc1ccc(Nc2ccnc(N3CCN(c4ccnc5cc(Cl)ccc45)CC3)n2)cc1	growth	15.4
Cc1cc(C#Cc2ccccc2)ccc1-n1c(/C=C/c2cc(O)ccc2O)nc2ccccc2c1=O	growth	-43.8
